Taken from paper PMC12416549.

test-target: T1, TNFR1 (Homo sapiens, UniProt P19438)
T1 chain: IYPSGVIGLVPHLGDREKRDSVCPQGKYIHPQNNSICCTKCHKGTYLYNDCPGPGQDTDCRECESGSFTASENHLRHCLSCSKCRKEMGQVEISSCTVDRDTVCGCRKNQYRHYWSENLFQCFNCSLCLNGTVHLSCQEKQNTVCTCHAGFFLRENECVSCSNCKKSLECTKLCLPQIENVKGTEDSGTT
assay-remarks: yeast display SC50
reported-metric: apparent Kd (screen) (pM)

# example entries with known answers
- binder: "L93S (designed binder) MTLQELLREEALRRAEAEAFRYALELLAEKFPEQKEYLLDLAEEIESQIRSLSGVDVEDVRKFLDKEWAWVKELLAEHPAELAEVEAARAARSAELRAEVEAKVAA"
  apparent Kd (screen) (pM): 1050
- binder: "A90C (designed binder) MTLQELLREEALRRAEAEAFRYALELLAEKFPEQKEYLLDLAEEIESQIRSLSGVDVEDVRKFLDKEWAWVKELLAEHPAELAEVEAARCARLAELRAEVEAKVAA"
  apparent Kd (screen) (pM): 718
- binder: "G54E (designed binder) MTLQELLREEALRRAEAEAFRYALELLAEKFPEQKEYLLDLAEEIESQIRSLSEVDVEDVRKFLDKEWAWVKELLAEHPAELAEVEAARAARLAELRAEVEAKVAA"
  apparent Kd (screen) (pM): 26900
- binder: "D59T (designed binder) MTLQELLREEALRRAEAEAFRYALELLAEKFPEQKEYLLDLAEEIESQIRSLSGVDVETVRKFLDKEWAWVKELLAEHPAELAEVEAARAARLAELRAEVEAKVAA"
  apparent Kd (screen) (pM): 446
- binder: "A98I (designed binder) MTLQELLREEALRRAEAEAFRYALELLAEKFPEQKEYLLDLAEEIESQIRSLSGVDVEDVRKFLDKEWAWVKELLAEHPAELAEVEAARAARLAELRIEVEAKVAA"
  apparent Kd (screen) (pM): 653

1. P32R (designed binder) MTLQELLREEALRRAEAEAFRYALELLAEKFREQKEYLLDLAEEIESQIRSLSGVDVEDVRKFLDKEWAWVKELLAEHPAELAEVEAARAARLAELRAEVEAKVAA
2. L64W (designed binder) MTLQELLREEALRRAEAEAFRYALELLAEKFPEQKEYLLDLAEEIESQIRSLSGVDVEDVRKFWDKEWAWVKELLAEHPAELAEVEAARAARLAELRAEVEAKVAA
3. V57K (designed binder) MTLQELLREEALRRAEAEAFRYALELLAEKFPEQKEYLLDLAEEIESQIRSLSGVDKEDVRKFLDKEWAWVKELLAEHPAELAEVEAARAARLAELRAEVEAKVAA
[in] Hey, can you sort those binders up there by apparent Kd (screen), smallest first? // ordering of labels required in reply
[out] 1, 3, 2
(1: 539 pM, 3: 1160 pM, 2: 26900 pM)
